- Subject of test: JAK3 (Homo sapiens, UniProt P52333)
- Construct: endogenous in cells
- Sequence (P52333 whole entry): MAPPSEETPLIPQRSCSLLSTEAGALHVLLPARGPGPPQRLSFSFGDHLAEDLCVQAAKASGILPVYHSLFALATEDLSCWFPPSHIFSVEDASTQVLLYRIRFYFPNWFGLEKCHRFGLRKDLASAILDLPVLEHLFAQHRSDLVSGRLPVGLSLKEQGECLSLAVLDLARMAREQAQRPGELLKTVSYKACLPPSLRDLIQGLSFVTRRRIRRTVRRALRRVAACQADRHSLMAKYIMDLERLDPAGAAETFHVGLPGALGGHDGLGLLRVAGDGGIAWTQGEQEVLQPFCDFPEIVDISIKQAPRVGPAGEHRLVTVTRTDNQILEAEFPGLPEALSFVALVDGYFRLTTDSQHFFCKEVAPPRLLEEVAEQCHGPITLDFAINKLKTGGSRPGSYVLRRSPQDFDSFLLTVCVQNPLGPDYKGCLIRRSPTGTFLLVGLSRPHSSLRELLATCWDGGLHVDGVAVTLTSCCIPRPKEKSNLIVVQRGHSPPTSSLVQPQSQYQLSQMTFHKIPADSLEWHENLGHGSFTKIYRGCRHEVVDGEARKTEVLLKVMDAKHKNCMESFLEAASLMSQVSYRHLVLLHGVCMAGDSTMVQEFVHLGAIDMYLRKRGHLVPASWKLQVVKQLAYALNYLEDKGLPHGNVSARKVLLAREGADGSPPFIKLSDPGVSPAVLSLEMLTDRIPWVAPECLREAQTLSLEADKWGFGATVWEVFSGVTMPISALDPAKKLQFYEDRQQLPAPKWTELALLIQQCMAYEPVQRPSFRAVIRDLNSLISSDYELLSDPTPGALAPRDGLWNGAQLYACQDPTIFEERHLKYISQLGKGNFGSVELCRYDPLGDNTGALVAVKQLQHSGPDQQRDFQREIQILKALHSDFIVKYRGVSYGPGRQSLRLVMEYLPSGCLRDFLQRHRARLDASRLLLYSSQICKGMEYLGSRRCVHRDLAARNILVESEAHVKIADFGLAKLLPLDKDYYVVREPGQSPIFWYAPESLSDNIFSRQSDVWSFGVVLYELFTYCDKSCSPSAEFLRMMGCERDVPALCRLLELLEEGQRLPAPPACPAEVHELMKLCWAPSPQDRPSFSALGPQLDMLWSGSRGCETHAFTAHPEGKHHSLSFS
- Procedure details: Kinobeads assay, JAK3 (dot blot detection)
- Recorded conditions: mixed Molt4/Ramos lysate
pIC50: −log10 of the molar value.
Catalogue of pIC50 readings, one per entry.

Below, 6 molecules whose answers are already recorded.
>>> print(df.to_string())
                               query_smiles    data_value
0  COc1ccc(C(=O)NC2CC2)cc1Nc1ncc(Cl)c(Nc2ccccc2NS(C)(=O)=O)n1        > 7.00
1  COc1ccc(Nc2nc(Nc3cc(-n4cnnc4)ccc3C)ncc2Cl)c(NS(C)(=O)=O)c1        > 7.00
2  COc1ccc(C(=O)NC(C)C)cc1Nc1ncc(Cl)c(Nc2ccccc2NS(C)(=O)=O)n1        > 7.00
3  Cc1ccc(C#N)cc1Nc1ncc(Cl)c(Nc2ccccc2NS(C)(=O)=O)n1  6.00 to 7.00
4  Cc1ccc(C#N)cc1Nc1ncc(Cl)c(Nc2cccc(F)c2NS(C)(=O)=O)n1  5.00 to 6.00
5  CNC(=O)c1ccc(Cl)c(Nc2ncc(Cl)c(Nc3ccccc3NS(C)(=O)=O)n2)c1  6.00 to 7.00

Please examine the following record next.
// pIC50 lookup, molecule = "COc1ccc(Nc2nc(Nc3cc(-n4cnnc4)ccc3OC)ncc2Cl)c(NS(C)(=O)=O)c1" , result: > 7.00

---

- Subject of test: JAK2 (Homo sapiens, UniProt O60674)
- Construct: endogenous in cells
- Sequence (O60674 whole entry): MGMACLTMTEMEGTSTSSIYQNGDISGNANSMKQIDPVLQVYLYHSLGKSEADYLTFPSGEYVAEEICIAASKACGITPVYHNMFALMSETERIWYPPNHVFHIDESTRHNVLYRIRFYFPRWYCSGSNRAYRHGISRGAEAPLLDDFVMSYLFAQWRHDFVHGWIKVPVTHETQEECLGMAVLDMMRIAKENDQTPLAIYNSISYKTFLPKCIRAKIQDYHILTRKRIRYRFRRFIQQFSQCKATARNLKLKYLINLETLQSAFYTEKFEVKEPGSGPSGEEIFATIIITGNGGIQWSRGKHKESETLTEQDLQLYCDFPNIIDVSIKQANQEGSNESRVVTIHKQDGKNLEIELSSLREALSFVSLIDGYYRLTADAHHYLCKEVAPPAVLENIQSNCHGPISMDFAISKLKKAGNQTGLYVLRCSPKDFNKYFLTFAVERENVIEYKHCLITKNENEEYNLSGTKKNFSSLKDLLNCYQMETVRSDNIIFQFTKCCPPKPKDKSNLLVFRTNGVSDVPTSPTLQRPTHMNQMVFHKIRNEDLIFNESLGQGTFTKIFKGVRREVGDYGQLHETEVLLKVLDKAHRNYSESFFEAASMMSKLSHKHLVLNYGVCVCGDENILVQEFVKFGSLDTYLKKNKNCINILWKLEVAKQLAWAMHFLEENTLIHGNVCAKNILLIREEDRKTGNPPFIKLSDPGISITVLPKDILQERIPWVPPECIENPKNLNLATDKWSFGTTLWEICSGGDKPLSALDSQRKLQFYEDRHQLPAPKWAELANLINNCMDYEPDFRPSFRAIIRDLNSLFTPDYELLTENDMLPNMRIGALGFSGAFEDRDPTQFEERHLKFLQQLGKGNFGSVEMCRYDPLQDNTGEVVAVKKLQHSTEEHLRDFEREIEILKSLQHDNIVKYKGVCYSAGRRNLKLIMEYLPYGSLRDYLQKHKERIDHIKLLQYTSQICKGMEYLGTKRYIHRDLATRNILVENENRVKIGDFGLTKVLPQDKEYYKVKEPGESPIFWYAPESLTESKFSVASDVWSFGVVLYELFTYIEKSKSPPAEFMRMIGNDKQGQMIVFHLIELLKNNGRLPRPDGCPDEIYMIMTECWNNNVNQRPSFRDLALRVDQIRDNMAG
- Procedure details: Kinobeads assay, JAK2 (dot blot detection)
- Recorded conditions: mixed Molt4/Ramos lysate
Measured parameter: IC50

// IC50 lookup, molecule = COc1ccc(Nc2nc(Nc3cc(-n4cnnc4)ccc3OC)ncc2Cl)c(NS(C)(=O)=O)c1 [Example 11] , result: 1 to 10 µM

// IC50 lookup, molecule = CCS(=O)(=O)Nc1ccccc1Nc1nc(Nc2cc(C#N)ccc2OC)ncc1Cl [Example 25] , result: ≥ 10 µM

---

- Subject of test: JAK3 (Homo sapiens, UniProt P52333)
- Construct: endogenous in cells
- Procedure details: Kinobeads assay, JAK3 (dot blot detection)
- Recorded conditions: mixed Molt4/Ramos lysate
Measured parameter: IC50

>>> print(df.to_string())
                               query_smiles      data_value
0  Cc1ccc(C(=O)N(C)C)cc1Nc1ncc(Cl)c(Nc2ccccc2NS(C)(=O)=O)n1  100 to 1000 nM
1  COc1ccc(C(=O)N2CCCCC2)cc1Nc1ncc(Cl)c(Nc2ccccc2NS(C)(=O)=O)n1  100 to 1000 nM
2  CCNC(=O)c1ccc(OC)c(Nc2ncc(Cl)c(Nc3ccccc3NS(=O)(=O)CC)n2)c1  100 to 1000 nM

// IC50 lookup, compound = "CNC(=O)c1ccc(OC)c(Nc2ncc(Cl)c(Nc3ccccc3NS(C)(=O)=O)n2)c1" , result: < 100 nM

// IC50 lookup, compound = "CCS(=O)(=O)Nc1ccccc1Nc1nc(Nc2cc(C(=O)NC)ccc2OC)ncc1Cl" , result: 100 to 1000 nM

// IC50 lookup, compound = "CCNC(=O)c1ccc(OC)c(Nc2ncc(Cl)c(Nc3ccccc3NS(C)(=O)=O)n2)c1" , result: < 100 nM

// IC50 lookup, compound = "COc1ccc(Nc2nc(Nc3cc(-n4cnnn4)ccc3C)ncc2Cl)c(NS(C)(=O)=O)c1" , result: < 100 nM

// IC50 lookup, compound = "CCS(=O)(=O)Nc1ccccc1Nc1nc(Nc2cc(C#N)ccc2OC)ncc1Cl" , result: 100 to 1000 nM

---

- Subject of test: JAK2 (Homo sapiens, UniProt O60674)
- Construct: endogenous in cells
- Procedure details: Kinobeads assay, JAK2 (dot blot detection)
- Recorded conditions: mixed Molt4/Ramos lysate
pIC50: −log10 of the molar value.
Catalogue of pIC50 readings, one per entry.

                               query_smiles  measured_parameter    data_value
0  CNC(=O)c1ccc(OC)c(Nc2ncc(Cl)c(Nc3ccccc3NS(C)(=O)=O)n2)c1               pIC50        ≤ 5.00
1  COc1ccc(C(=O)N2CCCCC2)cc1Nc1ncc(Cl)c(Nc2ccccc2NS(C)(=O)=O)n1               pIC50        ≤ 5.00
2  CNC(=O)c1ccc(Cl)c(Nc2ncc(Cl)c(Nc3ccccc3NS(C)(=O)=O)n2)c1               pIC50        ≤ 5.00
3  Cc1ccc(C(=O)N(C)C)cc1Nc1ncc(Cl)c(Nc2ccccc2NS(C)(=O)=O)n1               pIC50        ≤ 5.00
4  CCS(=O)(=O)Nc1ccccc1Nc1nc(Nc2cc(C(=O)NC)ccc2OC)ncc1Cl               pIC50        ≤ 5.00
5  COc1ccc(Nc2nc(Nc3cc(-n4cnnc4)ccc3C)ncc2Cl)c(NS(C)(=O)=O)c1               pIC50  6.00 to 7.00
6  Cc1ccc(C#N)cc1Nc1ncc(Cl)c(Nc2cccc(F)c2NS(C)(=O)=O)n1               pIC50        ≤ 5.00
7  CCNC(=O)c1ccc(OC)c(Nc2ncc(Cl)c(Nc3ccccc3NS(=O)(=O)CC)n2)c1               pIC50        ≤ 5.00
8  COc1ccc(Nc2nc(Nc3cc(-n4cnnn4)ccc3C)ncc2Cl)c(NS(C)(=O)=O)c1               pIC50  5.00 to 6.00

Please examine the following record next.
// pIC50 lookup, compound = "Cc1ccc(C#N)cc1Nc1ncc(Cl)c(Nc2ccccc2NS(C)(=O)=O)n1" , result: 5.00 to 6.00
